Biological target: Ubiquitin-conjugating enzyme E2 N (Homo sapiens, UniProt P61088);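 further: Dose-response confirmation in a TR-FRET assay detecting UBC13-driven polyubiquitin chain formation, inhibition measured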
Sequence (P61088 whole entry): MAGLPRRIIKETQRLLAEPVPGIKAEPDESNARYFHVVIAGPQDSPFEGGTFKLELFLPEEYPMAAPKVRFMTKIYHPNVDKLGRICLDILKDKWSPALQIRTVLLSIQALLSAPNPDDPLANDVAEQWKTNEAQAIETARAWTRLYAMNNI
Type: functional
Calls of active or inactive are those of the source.
Provide the recorded IC50 for the entries that follow.

molecule	IC50
NCC12CC3CC(C1)CC(c1ccc(Cl)cc1)(C3)C2	> 20 µM (inactive)
C#CCOCCOCCOCCNc1nc(N2CCN(C(=O)[C@H]([C@@H](C)CC)n3cc(CCCCN)nn3)CC2)nc(N2CCN(C(=O)[C@H]([C@@H](C)CC)n3cc(CCCN=C(N)N)nn3)CC2)n1	> 20 µM (inactive)
C#CCOCCOCCOCCNc1nc(N2CCN(C(=O)CCCCCCCCCCNC(=O)[C@H]([C@@H](C)CC)n3cc(CCCCCN)nn3)CC2)nc(N2CCN(C(=O)CCCCCCCCCCNC(=O)[C@H](CO)n3cc(CCCCCN)nn3)CC2)n1	4.22 µM (active)
CCCC(C(=O)NC(C)(C)C)N(C(=O)c1snc(C(N)=O)c1N)c1ccc2c(c1)OCCO2 (stereo not given)	8.3 µM (active)

For every record below, what is its IC50?
1. C#CCOCCOCCOCCNc1nc(N2CCN(C(=O)C([C@@H](C)O)n3cc([C@@H](N)CCCCN)nn3)CC2)nc(N2CCN(C(=O)[C@H](CCCCN)n3cc([C@@H](N)CC(N)=O)nn3)CC2)n1 (stereo not given in full)
2. COc1cc(-c2nc3ccc(N4CCN(C)CC4)cc3[nH]2)cc(OC)c1OC
3. CCN1CCN(Cc2ccc(NC(=O)c3ccc(C)c(NC(=O)c4cnc5cc(C(F)(F)F)ccc5c4O)c3)cc2C(F)(F)F)CC1
4. CC1CCCCN1CCNC(=O)c1cc2c(=O)n(C)c3ccccc3c2n1C (stereo not given)
5. O=C(NN1C(=O)CSC1=S)C(=O)NN1C(=O)CSC1=S
6. Cc1cccc(N2CCc3c2nc2ccccc2c3N)c1
7. CN(C)CCCN(C(=O)c1ccc(S(=O)(=O)N(C)Cc2ccccc2)cc1)c1nc2cc3c(cc2s1)OCO3

["> 20 µM (inactive)", "> 20 µM (inactive)", "> 20 µM (inactive)", "> 20 µM (inactive)", "> 20 µM (inactive)", "> 20 µM (inactive)", "11.5 µM (active)"]

For every record below, what is its IC50?
1. CC(C)[C@H](CN1CCC[C@H]1CN1C(N)=NC[C@@H]1Cc1ccccc1)N1C[C@@H](Cc2ccccc2)N(CCc2ccc(Cl)c(Cl)c2)C1=N
2. O=C(NCC1CCN(Cc2cccc(Cl)c2)CC1)C1CCCN(c2ncnc3c2nc2n3CCCCC2)C1 (stereo not given)
3. CCCCCCCCCCOC(=O)C[n+]1c(COc2cccc(C)c2)n(C)c2ccccc21
4. CCC[C@@H](CN1CCC[C@H]1CN1C(N)=NC[C@H]1C(C)C)N1C[C@@H](Cc2ccccc2)N(CCCC2CCCC2)C1=N

1. > 20 µM (inactive)
2. 3.87 µM (active)
3. > 20 µM (inactive)
4. > 20 µM (inactive)
